target: full-length human PKCι (Homo sapiens, UniProt P41743); construct: Recombinant, full-length human PKCι expressed in Sf21 insect cells is also commercially available; test: PKCι IC50 IMAP assay, full-length PKCι at 150 μM ATP; conditions: read-out: IC50 in IMAP assay against full length PKCi at 150 μM ATP
Where a name gives a salt, the structure may show the parent alone.
For each of the molecules below, state its IC50.

| MOLECULE | EXPERIMENTAL SYSTEM | IC50 |
| --- | --- | --- |
| c1cc(-c2nc(N3CCNCC3)c3c(C4CC4)cncc3n2)c2c(n1)NC1(CCCCC1)C2 | full-length human PKCι (Homo sapiens, UniProt P41743) | < 100 nM |
| COc1ccccc1-c1nccc2c(NC[C@@H](N)Cc3ccccc3)nc(-c3ccncc3)nc12 | full-length human PKCι (Homo sapiens, UniProt P41743) | 100 to 1000 nM |

For every item in the list below, what is its measured IC50?
1. N#C[C@H]1CN(c2nc(-c3ccnc(Nc4c(F)cccc4F)c3)nc3cncc(C4CC4)c23)CCN1
2. CC(C)NC(=O)C1CCN(c2nc(-c3ccnc(Nc4c(F)cccc4F)c3)nc3cncc(C4CC4)c23)CC1

Result ::
1: 100 to 1000 nM; 2: 1000 to 10000 nM

For every item in the list below, what is its measured IC50?
1. FC1(c2cc3c(-c4nc(N5CCNCC5)c5c(C6CC6)cncc5n4)ccnc3[nH]2)CC1
2. c1cc(-c2nc(N3CCNCC3)c3c(C4CC4)cncc3n2)cc(Nc2cnn(C3CC3)c2)n1
3. COc1cncc2nc(-c3ccncc3)nc(N3CCN[C@H](Cc4ccccc4)C3)c12
4. O[C@H]1CCN(c2nc(-c3ccncc3)nc3cnccc23)C1
5. c1cncc(Nc2cc(-c3nc(N4CCNCC4)c4c(C5CC5)cncc4n3)ccn2)c1
6. Cc1ccc(-c2nccc3c(NC[C@@H](N)Cc4ccccc4)nc(-c4ccncc4)nc23)s1
7. CC1(C)CNCCC1Nc1nc(-c2ccnc(Nc3nc(F)c(F)cc3F)c2)nc2cncc(C3CC3)c12 (stereo not shown)
8. COc1cncc2nc(-c3ccncc3)nc(N3CC[C@H](N)C3)c12

Result ::
< 100 nM
< 100 nM
< 100 nM
10000 to 40000 nM
< 100 nM
100 to 1000 nM
< 100 nM
100 to 1000 nM

For every item in the list below, what is its measured IC50?
1. O=C(NCCN1CCCC1)C1CCN(c2nc(-c3ccnc(Nc4c(F)cccc4F)c3)nc3cncc(C4CC4)c23)CC1
2. FC[C@H]1CN(c2nc(-c3ccnc(Nc4cc(C(F)(F)F)ccn4)c3)nc3cncc(C4CC4)c23)CCN1
3. Fc1cccc2c1[nH]c1nccc(-c3nc(N4CCNCC4)c4c(C5CC5)cncc4n3)c12

Result ::
1. < 100 nM
2. 100 to 1000 nM
3. < 100 nM

Query :: Look up IC50: c1ccc2c(c1)[nH]c1nccc(-c3nc(N4CCNCC4)c4c(C5CC5)cncc4n3)c12 [Example 1253, trifluoroacetic acid salt]
Result :: < 100 nM

====

target: full-length human PKCι (Homo sapiens, UniProt P41743); construct: Recombinant, full-length human PKCι expressed in Sf21 insect cells is also commercially available; experiment: PKCι IC50 IMAP assay, full-length PKCι at 150 μM ATP; details: read-out: IC50 in IMAP assay against full length PKCi at 150 μM ATP
For each of the compounds below, state its IC50.

Example cases with answers are listed next.
| COMPOUND | IC50 |
| --- | --- |
| COc1cncc2nc(-c3ccncc3)nc(N3CCC(N)(C(=O)Nc4ccccc4)C3)c12 (stereo not shown) [Example 153] | 1000 to 10000 nM |
| CC(=O)NC1CCN(c2nc(-c3ccnc(Nc4c(F)cccc4F)c3)nc3cncc(C4CC4)c23)CC1 [Example 657] | 100 to 1000 nM |

For every item in the list below, what is its measured IC50?
1. CN1CCN(c2cccc(Nc3cc(-c4nc(N5CCC(O)C(O)C5)c5c(C6CC6)cncc5n4)ccn3)c2)CC1 (racemic) [Example 678]
2. c1ccc(-c2ccc(Nc3cc(-c4nc(N[C@@H]5CCNC5)c5ccncc5n4)ccn3)nc2)cc1 [Example 318]
3. CN1CCC(Nc2nc(-c3ccnc(Nc4c(F)cccc4F)c3)nc3cncc(C4CC4)c23)CC1 [Example 2084]
4. COc1cncc2nc(-c3ccnc(Nc4ccccc4)c3)nc(N3CCC[C@H](O)C3)c12 [Example 425]
5. N[C@H]1CCCN(c2nc(-c3ccnc(Nc4ncc(F)cc4F)c3)nc3cncc(C4CC4)c23)C1 [Example 2198]

Result ::
< 100 nM
< 100 nM
< 100 nM
1000 to 10000 nM
< 100 nM

====

For each of the compounds below, state its pIC50.
molecular target: full-length human PKCι (Homo sapiens); construct: Recombinant, full-length human PKCι expressed in Sf21 insect cells is also commercially available; assay: PKCι IC50 IMAP assay, full-length PKCι at 150 μM ATP; conditions: read-out: IC50 in IMAP assay against full length PKCi at 150 μM ATP
pIC50: −log10 of the molar value.

For every item in the list below, what is its measured pIC50?
1. N#Cc1cccc(Nc2cc(-c3nc(N4CC[C@H](O)[C@H](O)C4)c4c(C5CC5)cncc4n3)ccn2)n1 (relative stereo) [Example 745]
2. CN(c1nc(-c2ccnc(Nc3ncc(Cl)cc3F)c2)nc2cncc(C3CC3)c12)C1CCNCC1 [Example 2151]
3. Clc1ncc(C2CC2)c2c(N3CCNCC3)nc(-c3ccnc4[nH]ccc34)nc12 [Example 1210]
4. N[C@@H](CNc1nc(-c2ccncc2)nc2c(-c3ccccn3)nccc12)Cc1ccccc1 [Example 122]

Result ::
1. 6.00 to 7.00
2. > 7.00
3. > 7.00
4. 6.00 to 7.00

====

biological target: full-length human PKCι (Homo sapiens, UniProt P41743); construct: Recombinant, full-length human PKCι expressed in Sf21 insect cells is also commercially available; assay: PKCι IC50 IMAP assay, full-length PKCι at 150 μM ATP; settings: read-out: IC50 in IMAP assay against full length PKCi at 150 μM ATP
pIC50: −log10 of the molar value.
MEASURE NAME: pIC50

| SMILES CODE | pIC50 |
| --- | --- |
| FC(F)(F)c1cc2c(-c3nc(N4CCNCC4)c4c(C5CC5)cnc(Cl)c4n3)ccnc2[nH]1 | > 7.00 |
| FC(F)(F)Oc1ccc(Nc2cc(-c3nc(N4CCNCC4)c4c(C5CC5)cncc4n3)ccn2)cc1 | > 7.00 |
| c1cc(-c2nc(N3CCSCC3)c3ccncc3n2)ccn1 | 4.40 to 5.00 |

Attention now turns to another entry.
Query :: Look up pIC50: C[C@H]1CN(c2nc(-c3ccnc(Nc4ccccc4F)c3)nc3cncc(C4CC4)c23)CCN1
Result :: > 7.00

====

biological target: full-length human PKCι (Homo sapiens); construct: Recombinant, full-length human PKCι expressed in Sf21 insect cells is also commercially available; test: PKCι IC50 IMAP assay, full-length PKCι at 150 μM ATP; details: read-out: IC50 in IMAP assay against full length PKCi at 150 μM ATP
pIC50: −log10 of the molar value.
MEASURE NAME: pIC50

For every item in the list below, what is its measured pIC50?
1. [2H]C1([2H])NC([2H])([2H])C([2H])([2H])N(c2nc(-c3ccnc(Nc4ccccc4)c3)nc3cncc(C4CC4)c23)C1([2H])[2H] [Example 636]
2. CC(C)(O)C#Cc1nccc2c(NCC(N)Cc3ccccc3)nc(-c3ccncc3)nc12 (stereo in doubt) [Example 131]
3. N[C@H](CNc1nc(-c2ccncc2)nc2c(Nc3nc[nH]n3)nccc12)Cc1ccccc1 [Example 126]

Result ::
1: > 7.00; 2: > 7.00; 3: 6.00 to 7.00

====

Molecular target: full-length human PKCι (Homo sapiens, UniProt P41743)
Construct: Recombinant, full-length human PKCι expressed in Sf21 insect cells is also commercially available
Sequence (P41743 1-596): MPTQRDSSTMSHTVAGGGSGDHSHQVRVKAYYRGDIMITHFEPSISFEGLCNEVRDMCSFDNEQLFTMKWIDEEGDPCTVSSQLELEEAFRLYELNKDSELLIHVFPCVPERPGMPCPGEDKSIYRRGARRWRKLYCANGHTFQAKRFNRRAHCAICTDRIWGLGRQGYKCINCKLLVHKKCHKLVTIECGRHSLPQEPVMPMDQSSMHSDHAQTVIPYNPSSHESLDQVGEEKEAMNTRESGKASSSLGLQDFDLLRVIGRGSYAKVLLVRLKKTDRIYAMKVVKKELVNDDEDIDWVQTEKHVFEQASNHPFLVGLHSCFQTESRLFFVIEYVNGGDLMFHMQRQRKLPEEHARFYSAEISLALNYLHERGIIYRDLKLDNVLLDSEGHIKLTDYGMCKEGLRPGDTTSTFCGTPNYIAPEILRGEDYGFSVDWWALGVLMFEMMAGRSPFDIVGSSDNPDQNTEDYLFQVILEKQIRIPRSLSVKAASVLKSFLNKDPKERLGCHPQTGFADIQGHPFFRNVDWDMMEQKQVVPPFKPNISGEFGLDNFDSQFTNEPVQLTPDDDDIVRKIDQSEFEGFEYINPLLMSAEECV
Assay: PKCι IC50 IMAP assay, full-length PKCι at 150 μM ATP
Settings: read-out: IC50 in IMAP assay against full length PKCi at 150 μM ATP
MEASURE NAME: IC50

| COMPOUND | MEASURE NAME | RESULT VALUE |
| --- | --- | --- |
| FC(F)(F)CNc1cc(-c2nc(N3CCNCC3)c3c(C4CC4)cncc3n2)ccn1 [Example 532] | IC50 | < 100 nM |
| Fc1cccc(F)c1Nc1cc(-c2nc(N3CCNCC3)c3c(C4CC4)cncc3n2)ccn1 [Example 264] | IC50 | < 100 nM |
| COc1cncc2nc(-c3ccncc3)nc(N3CCNC(CF)C3)c12 (stereo not shown) [Example 54] | IC50 | 1000 to 10000 nM |
| CC(C)(C)Nc1cc(-c2nc(N3CCNCC3)c3c(C4CC4)cncc3n2)ccn1 [Example 520] | IC50 | < 100 nM |
| FC1(F)CCCC(Nc2cc(-c3nc(N4CCNCC4)c4c(C5CC5)cncc4n3)ccn2)C1 (stereo not shown) [Example 673] | IC50 | < 100 nM |

For every item in the list below, what is its measured IC50?
1. CNCCNC(=O)C1CCN(c2nc(-c3ccnc(Nc4c(F)cccc4F)c3)nc3cncc(C4CC4)c23)CC1 [Example 744]
2. Fc1cc(F)c(F)c(Nc2cc(-c3nc(N4CCNCC4)c4c(C5CC5)cncc4n3)ccn2)n1 [Example 774]
3. c1cc(Nc2cc(-c3nc(N4CCNCC4)c4c(C5CC5)cncc4n3)ccn2)c2nonc2c1 [Example 2104]
4. CN1CCC(N(C)c2nc(-c3ccnc4[nH]c(C(F)(F)F)cc34)nc3cncc(C4CC4)c23)CC1 [Example 2081]
5. CC1(C)CN(c2nc(-c3ccnc(Nc4ccc(F)cc4)c3)nc3cncc(C4CC4)c23)CCN1 [Example 719]

Result ::
< 100 nM
< 100 nM
< 100 nM
< 100 nM
< 100 nM

For every item in the list below, what is its measured IC50?
1. C=Cc1cncc2nc(-c3ccnc(Nc4c(F)cccc4F)c3)nc(N3CCNCC3)c12 [Example 2094]
2. FC(F)(F)c1cc2c(-c3nc(NC4CCNCC4(F)F)c4c(C5CC5)cncc4n3)ccnc2[nH]1 (stereo not shown) [Example 2155]
3. N#Cc1ccc(Nc2cc(-c3nc(N4CCNCC4)c4c(C5CC5)cncc4n3)ccn2)cn1 [Example 506]
4. FC(F)(F)c1cc2c(-c3nc(N4CCC4)c4c(C5CC5)cncc4n3)ccnc2[nH]1 [Example 1248]
5. O[C@@H]1CCN(c2nc(-c3ccnc4[nH]c(C(F)(F)F)cc34)nc3cncc(C4CC4)c23)C[C@H]1O (racemic) [Example 1235]
6. CN1CCN(c2cccc(Nc3cc(-c4nc(N5CCNCC5)c5c(C6CC6)cncc5n4)ccn3)c2)CC1 [Example 681]

Result ::
< 100 nM
100 to 1000 nM
100 to 1000 nM
10000 to 40000 nM
100 to 1000 nM
< 100 nM
